Numbers sourced from patent US20070078102A1.

# TGT: NF-kB p65/p50 heterodimer (RelA/NFKB1) (Homo sapiens, UniProt Q04206;P19838 Q04206:1-551,P19838:1-433)
# Sequence (Q04206 whole entry, chain 1 of 2): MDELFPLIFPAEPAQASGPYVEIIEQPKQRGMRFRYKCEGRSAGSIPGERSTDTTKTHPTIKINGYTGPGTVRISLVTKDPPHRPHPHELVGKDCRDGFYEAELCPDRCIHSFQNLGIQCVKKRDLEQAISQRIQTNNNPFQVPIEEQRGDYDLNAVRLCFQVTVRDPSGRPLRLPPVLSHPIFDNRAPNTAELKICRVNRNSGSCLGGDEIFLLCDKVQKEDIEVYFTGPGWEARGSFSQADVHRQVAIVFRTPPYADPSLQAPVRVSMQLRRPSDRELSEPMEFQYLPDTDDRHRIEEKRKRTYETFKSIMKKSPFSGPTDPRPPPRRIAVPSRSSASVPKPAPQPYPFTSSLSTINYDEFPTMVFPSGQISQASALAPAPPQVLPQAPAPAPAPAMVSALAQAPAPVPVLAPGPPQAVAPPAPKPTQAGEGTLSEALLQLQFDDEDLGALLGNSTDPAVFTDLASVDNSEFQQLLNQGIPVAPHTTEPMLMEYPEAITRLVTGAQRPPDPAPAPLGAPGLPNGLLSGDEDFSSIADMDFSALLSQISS
# Sequence (P19838 1-433, chain 2 of 2): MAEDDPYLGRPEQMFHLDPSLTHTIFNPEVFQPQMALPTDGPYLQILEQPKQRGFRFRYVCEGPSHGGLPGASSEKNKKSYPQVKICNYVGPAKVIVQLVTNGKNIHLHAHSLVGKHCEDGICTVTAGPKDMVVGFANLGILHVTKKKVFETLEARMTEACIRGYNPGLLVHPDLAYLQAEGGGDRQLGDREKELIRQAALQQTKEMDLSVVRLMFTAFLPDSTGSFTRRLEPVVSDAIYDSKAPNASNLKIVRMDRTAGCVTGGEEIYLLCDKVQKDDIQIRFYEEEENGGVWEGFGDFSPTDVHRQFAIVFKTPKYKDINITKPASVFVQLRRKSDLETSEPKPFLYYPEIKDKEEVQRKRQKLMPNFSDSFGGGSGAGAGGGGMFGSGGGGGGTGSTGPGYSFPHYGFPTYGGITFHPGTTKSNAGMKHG
# ASSAY_NAME: EMSA; competition vs 32P 113/114 probe
# RECORDED_CONDITIONS: protein: extract; tags: none; nuclear extract of LPS-stimulated THP-1 cells
MEASUREMENT_TYPE: IC50 (fold molar excess)
Field: numeric (fold molar excess). Do not append units.

Examples with answers:
Reported IC50 ( decoy 123 A-W (dsDNA) DNA 1: CTCGGGACTTTCCTGT DNA 2: ACAGGAAAGTCCCGAG ) = 8

Reported IC50 ( 153/154 H3/H3 (dsDNA, PS at the 3 3'-most linkages of each strand) DNA 1: AGTTGAGGACTTTCCAGGC DNA 2: GCCTGGAAAGTCCTCAACT ) = 45

Reported IC50 ( decoy 173 E-Z-4 (dsDNA) DNA 1: TTGAGGACTTTCCAG DNA 2: CTGGAAAGTCCTCAA ) = 55

---
Reported IC50 ( 153/154 PS/PO (dsDNA, strand 153 full PS; strand 154 PO) DNA 1: AGTTGAGGACTTTCCAGGC DNA 2: GCCTGGAAAGTCCTCAACT ) = 5
